# Test system: A549 cells
# test-description: MTT anti-proliferative assay on A549 cells
# Assay type: cell-based, human
# protocol-conditions: Homo sapiens, A549, 48-h post treatment, mean ± SD, three experiments
measure: pIC50
Lab note: report pIC50 as minus log10 of the concentration in molar units, number only.

I'd like to know its pIC50. The compound in question is "c1ccc(N2CCN(c3ccccc3)C2c2ccco2)cc1"
3.91

I'd like to know its pIC50. The compound in question is "Clc1ccc(C2N(Cc3ccccc3)CCN2Cc2ccccc2)c(Cl)n1"
4.28

I'd like to know its pIC50. The compound in question is "O=[N+]([O-])c1ccc(C2N(Cc3ccccc3)CCN2Cc2ccccc2)cc1"
4.25

I'd like to know its pIC50. The compound in question is "CCN1CCN(CC)C1c1cc(Cl)ccc1F"
3.79

I'd like to know its pIC50. The compound in question is "Brc1cncc(C2N(Cc3ccccc3)CCN2Cc2ccccc2)c1"
4.14

I'd like to know its pIC50. The compound in question is "CCN1CCN(CC)C1c1ccnc(Cl)c1"
3.60

====

# Tested on: MCF-7 cells
# test-description: MTT anti-proliferative assay on MCF-7 cells
# Type: cell-based, human
# protocol-conditions: Homo sapiens, MCF7; MTT, 48-h post treatment, mean ± SD, three experiments; read-out: IC50 MCF-7
pIC50: −log10 of the molar value.
Label True when pIC50 >= 4; otherwise False.

Reference set (5 entries):
Evaluate Fc1ccc(Cl)cc1C1N(c2ccccc2)CCN1c1ccccc1 [Compound 6c] : pIC50 at minimum 4?
True

Evaluate O=[N+]([O-])c1ccccc1C1N(Cc2ccccc2)CCN1Cc1ccccc1 [Compound 4g] : pIC50 at minimum 4?
True

Evaluate Clc1ccc(C2N(Cc3ccccc3)CCN2Cc2ccccc2)c(Cl)n1 [Compound 4n] : pIC50 at minimum 4?
True

Evaluate CCN1CCN(CC)C1c1ccnc(Cl)c1 [Compound 7a] : pIC50 at minimum 4?
False

Evaluate C=CCNC1=C2CC(C)CC(OC)C(O)C(C)C=C(C)C(OC(N)=O)C(OC)C=CC=C(C)C(=O)NC(=CC1=O)C2=O (stereo not drawn) [Compound 17-AAG, reference compound] : pIC50 at minimum 4?
True

---
Evaluate CN1CCN(C)C1c1cc(Cl)ccc1F [Compound 8a] : pIC50 at minimum 4?
False

Evaluate CCN1CCN(CC)C1c1cc(Cl)ccc1F [Compound 7b] : pIC50 at minimum 4?
False

Evaluate Clc1ncc(C2N(c3ccccc3)CCN2c2ccccc2)s1 [Compound 6b] : pIC50 at minimum 4?
False

Evaluate Brc1cncc(C2N(Cc3ccccc3)CCN2Cc2ccccc2)c1 [Compound 4p] : pIC50 at minimum 4?
True

Evaluate c1ccc(CN2CCN(Cc3ccccc3)C2c2cc3ccccc3s2)cc1 [Compound 4f] : pIC50 at minimum 4?
False

Evaluate Cc1ccc(O)c(C2N(Cc3ccccc3)CCN2Cc2ccccc2)c1 [Compound 4b] : pIC50 at minimum 4?
True

====

# System: MCF-7 cells
# test-description: MTT anti-proliferative assay on MCF-7 cells
# Type: cell-based, human
# protocol-conditions: Homo sapiens, MCF7; Figure 3, mean ± SD, n = 3; read-out: anti-proliferative activity against MCF-7 cells (IC50), top 21 molecules from virtual screening
# Method: The anti-proliferative activity of compounds was determined by MTT (3-[4,5-dimethylthiazole-2-yl]-2,5-diphenyltetrazolium bromide) assay on MCF-7 and A549 cell lines, respectively. […] Compounds to be evaluated were dissolved in DMSO (dimethyl sulfoxide), diluted in RPMI-1640, and stored at −20 °C before use. […] Absorbance was measured at a wavelength of 490 nm using Synergy H1 (BioTek Instruments, Inc., Winooski, VT, USA). […]
Each entry below carries its reported pIC50.
Lab note: report pIC50 as minus log10 of the concentration in molar units, number only.

Consider the following illustrative entries.
I'd like to know its pIC50. The compound in question is "O=S(=O)(c1ccccc1)c1nc(-c2ccco2)oc1NCc1ccc(F)cc1"
3.62

I'd like to know its pIC50. The compound in question is "COc1ccc(C(=O)/C=C/Nc2ccc(S(=O)(=O)Nc3ccc(OC)nn3)cc2)cc1"
4.53

I'd like to know its pIC50. The compound in question is "O=C(Cn1c(-c2ccccn2)nc2ccccc21)NCCc1ccccc1"
3.72

I'd like to know its pIC50. The compound in question is "COc1ccc(-c2nnc(SCC(=O)N3CCOCC3)n2Cc2ccccc2)cc1"
3.87

---
I'd like to know its pIC50. The compound in question is "NC(=O)c1nnn(Cc2ccccc2)c1NC(=O)CSc1nnc(-c2ccco2)o1"
3.61

I'd like to know its pIC50. The compound in question is "O=S(=O)(c1ccccc1)c1nc(-c2ccc(Cl)cc2)oc1NCCCN1CCOCC1"
4.15

I'd like to know its pIC50. The compound in question is "Cc1cc(NC(=O)CCS(=O)(=O)c2nc(-c3ccc4c(c3)OCO4)cc(C(F)(F)F)n2)no1"
4.49

I'd like to know its pIC50. The compound in question is "CCOC(=O)c1nnn(Cc2ccccc2Cl)c1NC(=O)CN1CCC(C)CC1"
3.87

I'd like to know its pIC50. The compound in question is "O=C(Cn1c(-c2ccccn2)nc2ccccc21)NCCCN1CCOCC1"
3.51

====

Each entry below carries its reported pIC50.
# Test system: MCF-7 cells
# test-description: MTT anti-proliferative assay on MCF-7 cells
# Format: cell-based, human
# protocol-conditions: Homo sapiens, MCF7; MTT, 48-h post treatment, mean ± SD, three experiments; read-out: IC50 MCF-7
Lab note: report pIC50 as minus log10 of the concentration in molar units, number only.

I'd like to know its pIC50. The compound in question is "O=[N+]([O-])c1ccc(C2N(Cc3ccccc3)CCN2Cc2ccccc2)cc1"
3.93

I'd like to know its pIC50. The compound in question is "Clc1ncc(C2N(Cc3ccccc3)CCN2Cc2ccccc2)s1"
4.48

I'd like to know its pIC50. The compound in question is "Fc1ccc(Cl)cc1C1N(Cc2ccccc2)CCN1Cc1ccccc1"
4.56

I'd like to know its pIC50. The compound in question is "O=[N+]([O-])c1ccc(C2N(Cc3ccccc3)CCN2Cc2ccccc2)s1"
4.67

I'd like to know its pIC50. The compound in question is "c1ccc(N2CCN(c3ccccc3)C2c2ccco2)cc1"
4.39

---
I'd like to know its pIC50. The compound in question is "Clc1ccc(C2N(Cc3ccccc3)CCN2Cc2ccccc2)s1"
4.17

I'd like to know its pIC50. The compound in question is "c1ccc(CN2CCN(Cc3ccccc3)C2c2cncnc2)cc1"
4.29

I'd like to know its pIC50. The compound in question is "Clc1ccc(C2N(c3ccccc3)CCN2c2ccccc2)c(Cl)n1"
3.49

I'd like to know its pIC50. The compound in question is "c1ccc(CN2CCN(Cc3ccccc3)C2c2cccs2)cc1"
4.10

====

# System: A549 cells
# test-description: MTT anti-proliferative assay on A549 cells
# Type: cell-based, human
# protocol-conditions: Homo sapiens, A549, 48-h post treatment, mean ± SD, three experiments
Each entry below carries its reported IC50.
# value in µM; strip the unit string

Consider the following illustrative entries.
I'd like to know its IC50. The molecule in question is "Clc1ncc(C2N(c3ccccc3)CCN2c2ccccc2)s1"
172

I'd like to know its IC50. The molecule in question is "Fc1ccc(Cl)cc1C1N(c2ccccc2)CCN1c1ccccc1"
46.1

I'd like to know its IC50. The molecule in question is "Cc1ccc(C2N(Cc3ccccc3)CCN2Cc2ccccc2)s1"
113

I'd like to know its IC50. The molecule in question is "c1ccc(CN2CCN(Cc3ccccc3)C2c2cc3ccccc3s2)cc1"
136

I'd like to know its IC50. The molecule in question is "CN1CCN(C)C1c1cc(Cl)ccc1F"
149

---
I'd like to know its IC50. The molecule in question is "c1ccc(CN2CCN(Cc3ccccc3)C2c2cccs2)cc1"
78.2

I'd like to know its IC50. The molecule in question is C=CCNC1=C2CC(C)CC(OC)C(O)C(C)C=C(C)C(OC(N)=O)C(OC)C=CC=C(C)C(=O)NC(=CC1=O)C2=O (stereo not drawn) [Compound 17-AAG, reference compound]
3.54

====

Each entry below carries its reported pIC50.
# Test system: A549 cells
# test-description: MTT anti-proliferative assay on A549 cells
# Type: cell-based, human
# protocol-conditions: Homo sapiens, A549, 48-h post treatment, mean ± SD, three experiments
Lab note: report pIC50 as minus log10 of the concentration in molar units, number only.

Consider the following illustrative entries.
I'd like to know its pIC50. The compound in question is "c1ccc(CN2CCN(Cc3ccccc3)C2c2cncnc2)cc1"
4.09

I'd like to know its pIC50. The compound in question is "Clc1ccc(C2N(Cc3ccccc3)CCN2Cc2ccccc2)s1"
4.25

I'd like to know its pIC50. The compound in question is "Cc1ccc(O)c(C2N(Cc3ccccc3)CCN2Cc2ccccc2)c1"
4.05

I'd like to know its pIC50. The compound in question is "Clc1ccc(C2N(c3ccccc3)CCN2c2ccccc2)c(Cl)n1"
3.60

I'd like to know its pIC50. The compound in question is "Fc1ccc(Cl)cc1C1N(Cc2ccccc2)CCN1Cc1ccccc1"
4.23

---
I'd like to know its pIC50. The compound in question is "Clc1ncc(C2N(Cc3ccccc3)CCN2Cc2ccccc2)s1"
4.45

I'd like to know its pIC50. The compound in question is "O=[N+]([O-])c1ccccc1C1N(Cc2ccccc2)CCN1Cc1ccccc1"
4.39

I'd like to know its pIC50. The compound in question is "O=[N+]([O-])c1ccc(C2N(Cc3ccccc3)CCN2Cc2ccccc2)s1"
4.51

Just for reference, paper PMC6600241 is where these values come from.
